Molecular target: T1, SinR (Bacillus subtilis, UniProt P06533 1-111)
T1 sequence: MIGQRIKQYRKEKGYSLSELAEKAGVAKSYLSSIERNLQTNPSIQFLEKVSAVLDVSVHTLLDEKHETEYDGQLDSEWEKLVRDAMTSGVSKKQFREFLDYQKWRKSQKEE
Assay: fluorescence anisotropy/polarization
readout-kind: pKd
In plain terms, pKd is the concentration in mol/L turned into minus its base-10 logarithm.

Task: Need pKd of 22-mer inverted repeat, 6-FAM (dsDNA) DNA 1: TTTGTTCTCTAAAGAGAACTTA DNA 2: TAAGTTCTCTTTAGAGAACAAA , thanks.
Output: 6.60
